Experiment Summary: Acid dissociation constant, pKa of the compound
Measured Quantity: pKa

Requested read-out: pKa. Entry: CCc1cc(C(N)=S)ccn1 [ETHIONAMIDE]
11.9
